# Experimental system: HLA-A2.1 (Homo sapiens, UniProt P04439, D140Y/D185E/D98H/E176V/E277Q/G131W/G231S/I119V/I121R/I166T/I218V/L300P/L318F/N151K/N90K/P208A/P217A/Q86G/Q94H/R138H/R169H/T345S)
# Measurement notes: Competition assay of peptide binding to HLA-A2.1 (inhibition of M1 58-66 binding, clone 12 lysis of EA2 targets)
Outcome measure: A2.1-binding activity / affinity for the presenting MHC class I molecule (in words)

These solved cases illustrate the format of a correct answer.
GLAPPQHLI [hu-wt-p53 187-195]	high
RMPEAAPPV [hu-wt-p53 65-73]	high affinity
ITLEDSSGNL [hu-wt-p53 255-264]	intermediate
LLPENNVLSPL [hu-wt-p53 25-35]	high affinity

Next, consider the following sequence.
### Prompt Note down A2.1-binding activity / affinity for the presenting MHC class I molecule (in words) recorded for PLDGEYFTL [hu-wt-p53 322-330]
### Response intermediate
